For each entry below, report its TGI value.
system: HCT-116 colon; test: NCI tumour cell line growth inhibition, 48 h

Provide only the value of recorded TGI for CN1CCN(c2ccc3nc(-c4ccc5nc(CCCc6ccc(N(CCCl)CCCl)cc6)[nH]c5c4)[nH]c3c2)CC1
> 100 µM

Consider the compound CC(=O)NC(CCCCN(Cc1ccccc1)C(=O)N(C)N=O)C(=O)NCc1ccccc1 (stereo not drawn) and give its recorded TGI.
> 100 µM

Fill in reported TGI for this entry: COc1cc2cc[n+](C)c(Cc3ccc(Oc4cc(Cc5c6cc(OC)c(OC)cc6cc[n+]5C)ccc4OC)cc3)c2cc1OC
> 100 µM

----------
I'd be grateful if you could share measured TGI for these entries.
system: SF-539 CNS; experiment: NCI tumour cell line growth inhibition, 48 h

Write down TGI measured for item [N-]=[N+]=Nc1nnc(CCCCc2nnc(N=[N+]=[N-])o2)o1
> 100 µM

Please supply the value of reported TGI for the item CN(C)CCSC(=Nc1ccccc1)n1cccc1
> 100 µM

Tell me TGI reported for CCCCCCCCCCCCCC/C(C(=O)O)=C(\C)C(=O)O
> 100 µM

Identify the reported TGI for the following entry. Oc1c(O)c(Cc2ccccc2)c(Cc2ccccc2)c(Cc2ccccc2)c1Cc1ccccc1
> 10 µM

Check the records and state TGI for O=C(CC(=O)c1cccc2ccccc12)C(=O)Nc1nccs1
> 100 µM

# return recorded TGI for input CCOC(=O)CCCOc1cc(-c2ccccc2F)nc2cc3c(cc12)OCO3
> 100 µM

For the compound CC(C)C(=O)CC(c1ccc(Br)cc1)N1N=C(C(C)C)CC1c1ccc(Br)cc1 (centres undefined) , report TGI.
> 100 µM

Find the measured TGI of COc1cc2c3c(n(CCCN=[N+]=[N-])c(=O)c2cc1OC)-c1ccc(NC(C)=O)cc1C3=O and report it.
> 50 µM

Give TGI for CCOc1cc2cnc3c4cc(OC)c(OC)cc4ccc3c2cc1OC
> 100 µM

----------
For each record, write down the corresponding GI50.
test system: A498 renal; assay: NCI tumour cell line growth inhibition, 48 h

Specify measured GI50 for COc1cc(NC(=O)c2cc3ccccc3cc2O)c(OC)cc1Cl .
1960 nM

Hello, please tell me recorded GI50 for this one: COC(=O)[C@]12CC[C@@H](C)[C@H](C)[C@@H]1C1=CC[C@@H]3[C@@]4(C)C(C=O)=C[C@@](C)(COC(=O)c5ccco5)C4=CC[C@@]3(C)[C@]1(C)CC2
2810 nM

Look up GI50 of CN1CCN(c2ccc(NC(=O)c3cncnc3Nc3ccc4c(ccn4Cc4cccc(F)c4)c3)cc2)CC1 and report it.
2160 nM

----------
test system: NCI-H23 lung; experiment: NCI tumour cell line growth inhibition, 48 h
Where a SMILES comes first, the peptide text is derived from it. [ ]: non-standard residue; d: D form. The star is where a group is joined. Hyp = O=C(O)[CH]1C[CH](O)CN1; Cbz = O=C(OCc1ccccc1)*
I'd be grateful if you could share measured TGI for these entries.

Entry O=S(=O)(N1CCCCN(S(=O)(=O)C(F)(F)F)CCCN(S(=O)(=O)C(F)(F)F)CCCCN(S(=O)(=O)C(F)(F)F)CCCN(S(=O)(=O)C(F)(F)F)CCCCN(S(=O)(=O)C(F)(F)F)CCCN(S(=O)(=O)C(F)(F)F)CCCCN(S(=O)(=O)C(F)(F)F)CCC1)C(F)(F)F needs its TGI filled in; supply it.
> 31.6 µM

Report TGI for COc1ccc(C2C(C(=O)O)=C(CO)Oc3cc4c(cc32)OCO4)c(OC)c1 (centres undefined)
> 100 µM

Specify TGI for Cn1c(=O)c2[nH]c(CCS)nc2n(C)c1=O and stop.
> 100 µM

Assign TGI to the following record: C[C@@]12[Se]c3ccccc3[C@]1(C)[Se]c1ccccc12
> 100 µM

Provide TGI value for the following compound: CSc1ccc(NC(=O)CCl)cc1
> 10 µM

Quick one: give measured TGI for CCC12CN(C(=O)OC)C3C(Br)C1CCC(=O)C32 (centres undefined)
> 100 µM

Give the reported value of TGI for this record: CC(C)(C)CC(C)(C)c1cc2c(O)c(c1)Cc1cc(C(C)(C)CC(C)(C)C)cc(c1O)Cc1cc(C(C)(C)CC(C)(C)C)cc(c1O)Cc1cc(C(C)(C)CC(C)(C)C)cc(c1O)Cc1cc(C(C)(C)CC(C)(C)C)cc(c1O)Cc1cc(C(C)(C)CC(C)(C)C)cc(c1O)Cc1cc(C(C)(C)CC(C)(C)C)cc(c1O)Cc1cc(C(C)(C)CC(C)(C)C)cc(c1O)C2
> 100 µM

For the compound CCSc1nc(N)c(C#N)c(-c2ccc(OC)c(OC)c2)c1C#N , report TGI.
> 50 µM

Could you please provide reported TGI for NC(=O)CNC(=O)C1CC(O)CN1C(=O)C1CCCN1C(=O)OCc1ccccc1 (stereo not drawn) (Cbz-Pro-[Hyp]-Gly-NH2; configuration not given here) ? Thanks!
> 100 µM

----------
system: MOLT-4 leukemia; assay: NCI tumour cell line growth inhibition, 48 h
recorded endpoint: GI50

Give GI50 for Nc1nc(N)c2cc(S(=O)(=O)c3ccccc3)ccc2n1
4.31 µM

Specify GI50 for CCCCc1n(Cc2ccc3ccccc3n2)cc[n+]1Cc1ccc2ccccc2c1 and stop.
1.06 µM

Write down GI50 measured for item Cc1nc2sc(C(=O)Nc3cccc(Cl)c3C)c(N)c2cc1C(O)c1ccccc1 (stereo not given)
0.0673 µM

Specify reported GI50 for the molecule shown: C=CC(=O)N1CCC(CNc2ncnc(N)c2-c2ccc(Oc3ccccc3)cc2)CC1
18.6 µM

Look up GI50 of N#Cc1cc2c(=S)[nH]c(=S)[nH]c2nc1SCc1ccccc1 and report it.
43.3 µM

# return recorded GI50 for input CCSc1nnc(-c2ccc3ccccc3c2O)n1-c1ccccc1
> 100 µM

Tell me measured GI50 for CCOC(=O)CC1C(CNC(=O)NC)OC(n2cnc3c(NC(=O)Nc4ccccc4)ncnc32)C1O[Si](C)(C)C(C)(C)C (stereo not given) please.
2.39 µM

Please supply the value of reported GI50 for the item COc1ccc(/C=N/C2=NNC(C)(c3ccccc3O)N2C(Cc2c[nH]c3ccccc23)C(=O)O)cc1 (stereo not given)
3 µM

Report GI50, nothing else, for this molecule: O=CCC(O)C(O)C(O)CO (stereo not given)
> 100 µM

Identify measured GI50 associated with CCN(CC)CCOc1ccccc1-n1c(C)ccc1-c1ccccc1
13.9 µM

----------
Could you please report measured TGI for the items listed next?
tested on: DU-145 prostate; experiment: NCI tumour cell line growth inhibition, 48 h

Respond only with TGI recorded for O=C(O)C(C(F)(F)F)C(F)(F)F (tested in a mixture with another compound)
> 100 µM

Identify the reported TGI for the following entry. Nc1ncc(-c2ccc3ncnc(N4CCc5cc(F)c(Cl)cc54)c3c2)cc1C(F)(F)F
> 100 µM

Fill in TGI for record CN(C)c1cccc2c(S(=O)(=O)NCCCNCCN)cccc12
> 100 µM

Indicate its recorded TGI; the compound in question is COc1cc2c3c(n(CCCN=[N+]=[N-])c(=O)c2cc1OC)-c1ccc(NC(C)=O)cc1C3=O
> 50 µM

Tell us which TGI value is on record for CCOC(=O)/C=C(\C(=O)OCC)n1cc(C)c(=O)n(Cc2cn(COCCOC(C)=O)nn2)c1=O
> 100 µM

In one line, give reported TGI of the entry O=C1CNc2cc(N3CCCCC3)ccc2N1 .
> 100 µM

Give the measured TGI for CC(O)/C=C/C1OC(=O)CC1Nc1ccc(C=O)cc1 (stereo not drawn)
> 100 µM

Indicate its recorded TGI; the compound in question is O=c1oc2ccccc2c(O)c1Cc1ccccc1Cc1c(O)c2ccccc2oc1=O
> 100 µM

Recall and state the measured TGI for Fc1c(F)c(F)c(CSc2nc3ccccc3[nH]2)c(F)c1F .
> 100 µM

Fill in reported TGI for this entry: O=C1Nc2cc(-c3ccc(O)cc3)ccc2/C1=C/c1ccc[nH]1
> 36.4 µM

Name the recorded TGI of the compound listed here: CCOC(=O)c1nc2ccc(C(F)(F)F)cc2nc1NCc1ccc(F)cc1
> 100 µM

Identify TGI associated with the compound CC(C)C(=O)/C=C/c1ccc(Cl)cc1Cl
27.2 µM

Identify measured TGI corresponding to C/C=C/C(O)P(=O)(OC)OC (stereo not drawn)
1.49 µM

Please report TGI for the following compound: CCCCCC/C=C\CCCCCCCCCc1cccc(OC)c1O
> 100 µM

// Input: CCN(CC)CCOc1ccccc1-n1c(C)ccc1-c1ccccc1 . Output its TGI only.
32.3 µM

Tell me TGI reported for CCOC(=O)c1cccc(N=Nc2ncc(/C=C/C(=O)OC)[nH]2)c1
> 100 µM

Fill in reported TGI for this entry: O=C(C[n+]1ccn(CC(OCc2ccc(Cl)cc2Cl)c2ccc(Cl)cc2Cl)c1)c1ccc(F)cc1 (stereo not drawn)
3.09 µM

Note TGI for the compound shown: CCOC1Oc2ccccc2-c2nc(N)ncc21 (stereo not drawn)
> 100 µM

Give TGI for CCCCSCCC(N)P(=O)(O)O (stereo not drawn)
> 100 µM

Specify TGI for COc1ccc(/C=N/C2=NNC(C)(c3ccccc3O)N2C(Cc2c[nH]c3ccccc23)C(=O)O)cc1 (stereo not drawn) and stop.
17.8 µM

Find the measured TGI of CCOC(=O)COc1cc(-c2ccccc2)nc2cc(F)ccc12 and report it.
> 100 µM

Using the record for CNC(=O)OCC1=C(COC(=O)NC)CN(c2ccc(OC)cc2)C1 , state its measured TGI.
> 100 µM

Give TGI for the following compound: COc1ccccc1C(=O)Nc1ccc(Cl)c(C(=O)OC(C)C)c1
> 100 µM

Supply reported TGI belonging to this compound: CCN1Cc2c(/C=C/c3ccccc3)nc3ccc(OC)cc3c2N(c2cccc(Cl)c2)C1
3.47 µM

Dear colleague, please send me the reported TGI for CC(=S)NC=C(C(N)=O)C(N)=O when you can.
> 100 µM

Tell me its TGI given Nc1ccccc1-n1c2c(c3ccccc3c1=O)C(=O)c1ccccc1-2 as the entry.
> 100 µM

Indicate its recorded TGI; the compound in question is O=C1c2ccccc2-c2c1c1ccc3ccccc3c1n2-c1ccccc1
> 100 µM

Read off the recorded TGI for O=C(O)c1ccc2[nH]c(=O)oc2c1
> 100 µM
